system: UACC-257 melanoma; test: NCI tumour cell line growth inhibition, 48 h; in the data active = GI50 below about 0.43 µM; inactive = the rest
Bench note: report the call from active, inactive

These solved cases illustrate the format of a correct answer.
compound=O=C1c2[nH]cc(CN3CCN(CCO)CC3)c2C(=O)c2c1c(O)c1ccccc1c2O classification=inactive
compound=Cc1nnc([S-])o1.[Au+].c1ccc([PH+](c2ccccc2)c2ccccc2)cc1 classification=inactive
compound="CN(C)c1ccc(O)c2c1CC1CC3C(N(C)C)C(=O)C(C(N)=O)=C(O)C3(O)C(=O)C1=C2O (stereo not given)" classification=inactive
compound=COc1cccc(-n2ncc3c(N/N=C/c4ccc(F)cc4)ncnc32)c1 classification=inactive

**Query** State the result this test recorded for C=CCOC1=CC(=O)c2ccccc2C1=O .
**Result** inactive

**Query** I would be grateful if you could indicate the recorded call for COc1ccc(CN2CCc3c(Sc4ccccc4)nc(N)nc3C2=O)c(OC)c1 .
**Result** inactive

**Query** Status in this test for O=C(NC1CCCCC1)NS(=O)(=O)c1ccc(-n2nc3c(c2-c2cccs2)Cc2ccccc2-3)cc1 ?
**Result** inactive

**Query** Which result was noted for this compound in the test: COc1ccc(-c2cnoc2-c2ccc(OC)cc2O)cc1
**Result** inactive

**Query** // return assay outcome for CCCCN(CCCC)CC(O)c1ccc(OCc2ccccc2)c2ccccc12 (stereo not given)
**Result** inactive

**Query** What outcome does the record of this test show for O=C1c2ccc3c4c(ccc(c24)C(=O)N1CCCNCc1ccccc1F)C(=O)N(CCCNCc1ccccc1F)C3=O ?
**Result** active
